From: PubChem BioAssay (NCI)

- Test system: NCI-H522 lung
- Assay method text: NCI-60 one-dose screen, 48 h (100 = growth as untreated, 0 = no growth, -100 = all killed)
- Condition parameters: 10 µM unless noted
About 83,000 compounds went through this panel and 20% of them were active in at least one assay; those are over-represented in the sample as a whole.
Each entry below lists one item and its recorded growth value.

Compound: CCOC(=O)C1CN(Cc2ccccc2)C(=O)C1=O (stereo not given)
growth, %: 98.6

Compound: COc1ccc(Cl)cc1NC(=O)c1cc2c(n1C)-c1nc(NC(=O)C(C)(C)C)sc1CC2
growth, %: 69

Compound: COc1ccc(-n2c(-c3ccc(NC(=O)CCCl)cc3)nnc2-c2cc(OC)c(OC)c(OC)c2)cc1
growth, %: 43.8

Compound: Nc1n[nH]c2cccc(C#Cc3cccc(NC(=O)c4cccc(C(F)(F)F)c4)c3)c12
growth, %: 41.2

Compound: O=C(Cn1c2ccccc2c2ccncc21)N/N=C/c1c[nH]c2ccccc12
growth, %: 58.8

====

- System: HS 578T breast
- Assay method text: NCI-60 one-dose screen, 48 h (100 = growth as untreated, 0 = no growth, -100 = all killed)
- Condition parameters: 10 µM unless noted
About 83,000 compounds went through this panel and 20% of them were active in at least one assay; those are over-represented in the sample as a whole.
Property label: growth (%)

Cpd smiles: COc1ccccc1S(=O)(=O)Nc1ccc2c3c(cc(-c4cnn(C5CC5)c4)nc13)C(=O)N2C
Test value: 55.9
//
Cpd smiles: C/C(=N/NC(=O)Cn1c2ccccc2c2ccncc21)c1cccs1
Test value: 91.1
//
Cpd smiles: CN(C)c1ccc2cc(-c3nc4ccccc4s3)c(N)nc2c1
Test value: 91.9
//
Cpd smiles: CCn1c(C)nc([N+](=O)[O-])c1Sc1nc(N)nc2nc[nH]c12
Test value: 50.4
//
Cpd smiles: Nc1ncnc2c1c(-c1ccc(Oc3ccccc3)cc1)nn2C[C@H]1SSC[C@@H]1O
Test value: 68.3

====

- Tested on: NCI/ADR-RES ovarian
- Assay method text: NCI-60 one-dose screen, 48 h (100 = growth as untreated, 0 = no growth, -100 = all killed)
- Condition parameters: 10 µM unless noted
This is part of a sample that, as a whole, favours compounds with a hit. Of some 83,000 tested, about 20% had one in any assay.
Property label: growth (%)

Molecule: COc1ccccc1N1CCN(CCCOc2ccc(OCCCN3CCN(c4ccccc4OC)CC3)c(C(=O)c3cc(OC)c(OC)c(OC)c3)c2)CC1
Test value: 105

Molecule: CC(=O)O[C@@H]1[C@@H](OC(C)=O)[C@H](OC(C)=O)CO[C@H]1Nc1cccc2ccccc12
Test value: 95.9

Molecule: CCN(CC)CCNc1ccc([N+](=O)[O-])c2sc3cc(Cl)ccc3c(=O)c12
Test value: 33.9

Molecule: COc1ccc(CNc2nc3ccccc3c3c(=O)c4ccccc4sc23)cc1OC
Test value: 74.3

Molecule: C[C@H]1C=C(C[C@@H](O)CCCCCCCCCC[C@@H](O)[C@H]2CCC(=O)O2)C(=O)O1
Test value: 99.6

Molecule: Cc1c(Cl)ccc2c(C(=O)Cl)cc(-c3ccccc3)nc12
Test value: 101

Molecule: Nc1c(C(=O)O)[nH]c(=O)[nH]c1=O
Test value: 108

Molecule: COc1ccccc1S(=O)(=O)Nc1ccc2c3c(cc(-c4cnn(C5CC5)c4)nc13)C(=O)N2C
Test value: 59

Molecule: Cc1ccccc1C[P+](c1ccccc1)(c1ccccc1)c1ccccc1
Test value: 114

Molecule: NC(=O)C1=C[C@H]2[C@H]3C=C[C@@]2(O)C(=O)O[C@@H]3O1
Test value: 75.3

Molecule: Cc1cc(-c2ccccc2)nc2ccccc12
Test value: 102

Molecule: CC(C(C(=O)N1CCCCC1)N1CCCCC1)N1CCCCC1 (stereo not given)
Test value: 112

Molecule: Nc1ncnc2c1ccn2-c1cccc(NC(=O)c2cccc(C(F)(F)F)c2)c1
Test value: 78.4

Molecule: NS(=O)(=O)c1ccc(CCN2C(=O)/C(=C\c3ccc(Cl)cc3)C=C2c2ccc(Oc3ccccc3)cc2)cc1
Test value: 78.3

Molecule: CC(C)CNCC(=O)Nc1ccc(Cc2ccc(NC(=O)CNCC(C)C)cc2)cc1
Test value: 78.2

Molecule: CN(C)CCCOc1c(Br)cc(/C=C/C(=O)N(C)CCc2cc(Br)c(OCCCN(C)C)c(Br)c2)cc1Br
Test value: 56.6

Molecule: COc1ccc2c(c1)nnc1c3cccnc3[nH]c21
Test value: 13.8

Molecule: O=C(c1cc(-c2ccc(Cl)cc2)nc2ccccc12)N1N=C(c2ccccc2)CC1c1cc(-c2ccccc2)nn1-c1ccccc1 (stereo not given)
Test value: 81.5

Molecule: O[C@@H]1CCO[C@H](c2ccc3ccccc3c2)C1
Test value: 106

Molecule: CC(=O)Oc1ccc(C(OC(C)=O)OC(C)=O)cc1
Test value: 103
